These entries and their values trace back to patent US4001218A.

Exercise: for every item that follows, state its recorded MIC.
# System: Klebsiella 63
# Test name: MIC, test tube series dilution test, Klebsiella 63
# Assay type: cell-based
# Test conditions: Klebsiella 63; 24 hours, 37°C
Return type: number; implicit unit U/ml.

## Task Look up MIC with Klebsiella 63 for this compound: CC(N=[N+]=[N-])C(=O)Nc1ccc(C(=O)N[C@@H](C(=O)N[C@@H]2C(=O)N3[C@@H]2SC(C)(C)[C@@H]3C(=O)O)c2ccccc2)cc1 (stereo partly shown)
## Result 32

## Task Next entry: "CC1(C)S[C@@H]2[C@H](NC(=O)[C@H](NC(=O)c3ccc(NC(=O)CCN=[N+]=[N-])cc3)c3ccccc3)C(=O)N2[C@H]1C(=O)O"
## Result 64

## Task // next record "CC1(C)S[C@@H]2[C@H](NC(=O)[C@H](NC(=O)c3ccc(NC(=O)Nc4ccccc4)cc3)c3ccccc3)C(=O)N2[C@H]1C(=O)O"
## Result 16

## Task Queued: CC1(C)S[C@@H]2[C@H](NC(=O)[C@H](N)c3ccccc3)C(=O)N2[C@H]1C(=O)O [Ampicillin, D(-)-α-aminobenzylpenicillin, reference compound]
## Result 128

## Task Do the same for "CC1(C)S[C@@H]2[C@H](NC(=O)[C@H](NC(=O)c3ccc(N)cc3)c3ccccc3)C(=O)N2[C@H]1C(=O)O" please
## Result 128

## Task What about "COc1cc(OC)cc(C(=O)Nc2ccc(C(=O)N[C@@H](C(=O)N[C@@H]3C(=O)N4[C@@H]3SC(C)(C)[C@@H]4C(=O)O)c3ccccc3)cc2)c1" ?
## Result 64

## Task // next record "CC1(C)S[C@@H]2[C@H](NC(=O)[C@H](NC(=O)c3ccc(NC=O)cc3)c3ccccc3)C(=O)N2[C@H]1C(=O)O"
## Result 128

## Task Next compound up: "CC1(C)S[C@@H]2[C@H](NC(=O)[C@H](NC(=O)c3ccc(NC(=O)C4CCCC4)cc3)c3ccccc3)C(=O)N2[C@H]1C(=O)O"
## Result 32

## Task Next: "COc1ccc(C(=O)Nc2ccc(C(=O)N[C@@H](C(=O)N[C@@H]3C(=O)N4[C@@H]3SC(C)(C)[C@@H]4C(=O)O)c3ccccc3)cc2)cc1"
## Result 16

---

# System: Proteus morg. 932
# Test name: MIC, test tube series dilution test, Proteus morg. 932
# Assay type: cell-based
# Test conditions: 24 hours, 37°C
I'd be grateful if you could share measured MIC for these entries.

## Task Need MIC, item "CC1(C)S[C@@H]2[C@H](NC(=O)[C@H](NC(=O)c3ccc(NC(=O)C4CCC4)cc3)c3ccccc3)C(=O)N2[C@H]1C(=O)O"
## Result 256 U/ml

## Task Thanks! And "CC1(C)S[C@@H]2[C@H](NC(=O)[C@H](NC(=O)c3cc(NC(=O)C4CC4)cc(NC(=O)C4CC4)c3)c3ccccc3)C(=O)N2[C@H]1C(=O)O" ?
## Result > 256 U/ml

## Task Try this compound too: "CC1(C)S[C@@H]2[C@H](NC(=O)[C@H](NC(=O)c3ccc(NC(N)=O)cc3)c3ccccc3)C(=O)N2[C@H]1C(=O)O"
## Result > 256 U/ml

---

Provide the reported MIC of each item.
# Tested on: Proteus morg. 932
# Test name: MIC, test tube series dilution test, Proteus morg. 932
# Assay type: cell-based
# Test conditions: 24 hours, 37°C

## Task What is its MIC for Proteus morg. 932? Entry: CC1(C)S[C@@H]2[C@H](NC(=O)[C@H](NC(=O)c3ccc(NC(=O)CCN=[N+]=[N-])cc3)c3ccccc3)C(=O)N2[C@H]1C(=O)O [Example 38]
## Result ~ 256 U/ml

## Task Now try CC1(C)S[C@@H]2[C@H](NC(=O)[C@H](NC(=O)CSc3ccc(NC=O)cc3)c3ccccc3)C(=O)N2[C@H]1C(=O)O [Example 59] .
## Result > 256 U/ml

## Task Try the molecule CC1(C)S[C@@H]2[C@H](NC(=O)[C@H](N)c3ccccc3)C(=O)N2[C@H]1C(=O)O [Ampicillin, D(-)-α-aminobenzylpenicillin, reference compound]
## Result 256 U/ml

## Task And what about the molecule CC1(C)S[C@@H]2[C@H](NC(=O)[C@H](NC(=O)c3cccc(NC(=O)C4CC4)c3)c3ccccc3)C(=O)N2[C@H]1C(=O)O [Example 51] ?
## Result > 256 U/ml

## Task Check CC1(C)S[C@@H]2[C@H](NC(=O)[C@H](NC(=O)CSc3ccc(NC(=O)C4CCC4)cc3)c3ccccc3)C(=O)N2[C@H]1C(=O)O [Example 61] too.
## Result > 256 U/ml

## Task Moving on to CC1(C)S[C@@H]2[C@H](NC(=O)[C@H](NC(=O)c3ccc(NC(=O)Nc4ccccc4)cc3)c3ccccc3)C(=O)N2[C@H]1C(=O)O [Example 45]
## Result 128 U/ml

---

# Test system: Klebsiella K 10
# Test name: MIC, test tube series dilution test, Klebsiella K 10
# Assay type: cell-based
# Test conditions: 24 hours, 37°C
Kindly supply the reported MIC values for the records listed here.
Provide only the numeric value, understood in U/ml.

## Task Lab note: need MIC for "CC1(C)S[C@@H]2[C@H](NC(=O)[C@H](NC(=O)c3ccc(NC(=O)Nc4ccccc4)cc3)c3ccccc3)C(=O)N2[C@H]1C(=O)O" on Klebsiella K 10, anyone have it?
## Result 32

## Task Then "CC1(C)S[C@@H]2[C@H](NC(=O)[C@H](NC(=O)c3ccc([N+](=O)[O-])cc3)c3ccccc3)C(=O)N2[C@H]1C(=O)O" ?
## Result 128

## Task And then "CC1(C)S[C@@H]2[C@H](NC(=O)[C@H](NC(=O)c3ccc(NC(=O)C4CCC4)cc3)c3ccccc3)C(=O)N2[C@H]1C(=O)O" , what is it?
## Result 128

## Task Would you kindly repeat that for "CC1(C)S[C@@H]2[C@H](NC(=O)[C@H](NC(=O)c3ccc(NC(=O)c4ccc(F)cc4)cc3)c3ccccc3)C(=O)N2[C@H]1C(=O)O" ?
## Result 64

---

Assign MIC to each entry below.
# Tested on: Staph. aureus 133
# Format: cell-based, Staphylococcus aureus
# Test conditions: Staph. aureus 133; 24 hours, 37°C

## Task Which MIC reading was recorded for the compound CC1(C)S[C@@H]2[C@H](NC(=O)[C@H](NC(=O)c3ccc(NC(=O)CC4CC5CCC4C5)cc3)c3ccccc3)C(=O)N2[C@H]1C(=O)O (single isomer, unassigned) [Example 15] ?
## Result < 1 U/ml

## Task Same again, this time with CC1(C)S[C@@H]2[C@H](NC(=O)[C@H](NC(=O)c3cc(NC=O)cc(NC=O)c3)c3ccccc3)C(=O)N2[C@H]1C(=O)O [Example 71]
## Result < 1 U/ml

## Task Another compound to check: CC1(C)S[C@@H]2[C@H](NC(=O)[C@H](N)c3ccccc3)C(=O)N2[C@H]1C(=O)O [Ampicillin, D(-)-α-aminobenzylpenicillin, reference compound]
## Result < 1 U/ml

## Task Same question, CC1(C)S[C@@H]2[C@H](NC(=O)[C@H](NC(=O)c3ccc(NC(=O)c4ccc5c(c4)OCO5)cc3)c3ccccc3)C(=O)N2[C@H]1C(=O)O [Example 24] this time
## Result < 1 U/ml

## Task // query: CC1(C)S[C@@H]2[C@H](NC(=O)[C@H](NC(=O)c3ccc(NC(=O)C4(O)CC4)cc3)c3ccccc3)C(=O)N2[C@H]1C(=O)O [Example 2]
## Result < 1 U/ml

## Task Would you mind doing CC1(C)S[C@@H]2[C@H](NC(=O)[C@H](NC(=O)CNC(=O)c3ccc(N=[N+]=[N-])cc3)c3ccccc3)C(=O)N2[C@H]1C(=O)O [Example 68] as well?
## Result < 1 U/ml

## Task Same lookup for CC1(C)S[C@@H]2[C@H](NC(=O)[C@H](NC(=O)c3cccc(NC(=O)C4CC4)c3)c3ccccc3)C(=O)N2[C@H]1C(=O)O [Example 51] , please.
## Result < 1 U/ml

## Task Can you handle CC1(C)S[C@@H]2[C@H](NC(=O)[C@H](NC(=O)c3ccccc3NC(=O)C3CC3)c3ccccc3)C(=O)N2[C@H]1C(=O)O [Example 49] next?
## Result < 1 U/ml

---

# Tested on: Proteus morg. 932
# Test name: MIC, test tube series dilution test, Proteus morg. 932
# Type: cell-based
# Test conditions: 24 hours, 37°C
What MIC was measured for each of the following?
Your answer should be a plain number; it is taken to be in U/ml.

## Task Request - read-out MIC | tested on Proteus morg. 932 | compound CC1(C)S[C@@H]2[C@H](NC(=O)[C@H](NC(=O)c3ccc(NC(=O)C4=CCCCC4)cc3)c3ccccc3)C(=O)N2[C@H]1C(=O)O [Example 11]
## Result 128

## Task Try this compound next: CC1(C)S[C@@H]2[C@H](NC(=O)[C@H](NC(=O)c3ccc(NC(=O)C4CCCC4)cc3)c3ccccc3)C(=O)N2[C@H]1C(=O)O [Example 7]
## Result 256

## Task Entry CC1(C)S[C@@H]2[C@H](NC(=O)[C@H](NC(=O)c3ccc(NC(=O)CC4C=CCC4)cc3)c3ccccc3)C(=O)N2[C@H]1C(=O)[O-].[Na+] (stereo partly drawn) [Example 8] please
## Result 128
